System: MV4:11 human cancer cell lines
Assay: Anti-proliferative activity, CellTiter-Glo viability assay, 7 day protocol
Format: cell-based
Details: Homo sapiens, MV4-11, 168 h, MV4:11 cells, 7 day incubation, read-out: GI50 on cellular proliferation of MV4:11 human cancer cell lines

Given Smiles | Result Unit | Bound Operator | GI50
Cc1cc([C@@H](NC(=O)c2cc(Cn3ccn(C)c3=N)cc(-c3ccc(F)cc3C(F)(F)F)c2)C2CC2)ccc1F | nM | < | 100
Cc1cc(F)ccc1-c1cc(Cn2ccoc2=N)cc(C(=O)N[C@@H](C)c2ccc(F)c(C(F)(F)F)c2)c1 | nM | = | 1100
CCn1cc(-c2cc(Cn3ccn(C4CC4)c3=N)cc(C(=O)N[C@H](c3ccc(F)c(F)c3)C3CC3)c2)c(C(F)(F)F)n1 | nM | = | 190
CC(C)n1cc(-c2cc(CN3CCOC3=N)cc(C(=O)N[C@H](c3ccc(F)c(F)c3)C3CC3)c2)c(C(F)(F)F)n1 | nM | < | 100
Cc1nc(F)ccc1-c1cc(CN2CCCC2=N)cc(C(=O)NCc2ccc(Cl)c(Cl)c2)c1 | nM | = | 950
CCOc1c(C(=O)N[C@H](c2ccc(F)c(C)c2)C2CC2)cc(Cn2ccccc2=N)cc1-c1cn(C)nc1C(F)(F)F | nM | < | 100
Cc1cc([C@@H](NC(=O)c2cc(Cn3ccn(C)c3=N)cc(-c3ccccc3C)c2)C2CC2)ccc1F | nM | = | 140

meta.source: patent US10844044B2
